Measured values drawn from paper PMC11747885 for this set.

Target: Rlig1-AMP (Homo sapiens, UniProt Q8N999)
Construct: made in house; host or cells: E. coli BL21 (DE3), pET15b-Rlig1
Sequence (Q8N999 whole entry): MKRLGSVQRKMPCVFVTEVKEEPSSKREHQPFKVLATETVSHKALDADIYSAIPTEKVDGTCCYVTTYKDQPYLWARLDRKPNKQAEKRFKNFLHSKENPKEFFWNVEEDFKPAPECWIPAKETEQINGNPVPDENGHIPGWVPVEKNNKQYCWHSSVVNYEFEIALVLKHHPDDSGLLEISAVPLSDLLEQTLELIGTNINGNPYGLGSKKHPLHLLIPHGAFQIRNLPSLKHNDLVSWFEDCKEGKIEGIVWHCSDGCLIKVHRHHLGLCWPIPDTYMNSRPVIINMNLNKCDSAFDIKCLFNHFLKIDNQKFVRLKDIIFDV
Experiment: Radioactive RNA ligation assay (hit validation, 10 µM test and IC50 determination)
Format: biochemical
Conditions: four-parameter fit, n = 3; read-out: IC50 (best-fit value)
# IC50 values compiled below

Compound string: CNc1nccc(Nc2ccc(NC(=O)c3ccc(Nc4ccnc5ccccc45)cc3)cc2)n1
IC50 (µM): 3.29
//
Compound string: Nc1nccc(Nc2ccc(NC(=O)c3ccc(Nc4ccnc5ccccc45)cc3)cc2)n1
IC50 (µM): 4.49
//
Compound string: Nc1nc(Nc2ccc(NC(=O)c3ccc(Nc4ccnc5ccccc45)cc3)cc2)cc(C(F)(F)F)n1
IC50 (µM): 7.98
//
Compound string: Nc1nccc(Nc2ccc(NC(=O)c3ccc(Nc4ncnc5ccccc45)cc3)cc2)n1
IC50 (µM): 4.54
